// data source = patent US20230406942A1

target: T1, Human IGF-I R (Glu 31-Asn 932 with a polyhistidine tag at the C-terminus) (human, UniProt P08069 31-932); assay: BLI (Octet RED96e), His-tagged IGF-1R on Ni-NTA sensors, Fab 0-100 nM, 1:1 global fit
T1 construct: range 31-932; Bought protein; captured on Ni-NTA biosensors for BLI; also called IGF1R; IGF-1R; not shown: C-terminal polyhistidine tag
T1 sequence (P08069 31-932 limits assumed): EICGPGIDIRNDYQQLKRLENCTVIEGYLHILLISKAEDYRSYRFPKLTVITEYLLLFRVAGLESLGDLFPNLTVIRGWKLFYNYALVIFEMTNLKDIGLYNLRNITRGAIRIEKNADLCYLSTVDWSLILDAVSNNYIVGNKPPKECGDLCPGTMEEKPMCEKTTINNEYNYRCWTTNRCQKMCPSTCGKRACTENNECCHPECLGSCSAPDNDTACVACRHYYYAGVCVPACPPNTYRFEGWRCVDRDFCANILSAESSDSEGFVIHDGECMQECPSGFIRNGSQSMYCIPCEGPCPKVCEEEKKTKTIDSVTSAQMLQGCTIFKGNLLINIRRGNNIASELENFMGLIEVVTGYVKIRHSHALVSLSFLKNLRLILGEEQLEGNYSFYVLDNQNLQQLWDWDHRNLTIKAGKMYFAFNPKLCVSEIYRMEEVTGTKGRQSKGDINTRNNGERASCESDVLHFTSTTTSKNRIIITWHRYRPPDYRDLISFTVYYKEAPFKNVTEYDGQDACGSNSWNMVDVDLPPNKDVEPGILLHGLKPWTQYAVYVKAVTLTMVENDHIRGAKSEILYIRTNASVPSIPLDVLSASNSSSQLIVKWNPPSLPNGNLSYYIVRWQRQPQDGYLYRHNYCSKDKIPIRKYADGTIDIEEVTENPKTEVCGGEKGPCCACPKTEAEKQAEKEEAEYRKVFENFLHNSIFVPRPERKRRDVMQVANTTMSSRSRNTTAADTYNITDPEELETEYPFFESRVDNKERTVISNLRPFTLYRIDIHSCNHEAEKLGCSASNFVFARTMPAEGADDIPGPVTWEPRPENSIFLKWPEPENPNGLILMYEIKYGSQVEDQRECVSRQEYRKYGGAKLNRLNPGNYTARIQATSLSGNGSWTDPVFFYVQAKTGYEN
READOUT: Kd (nM)
I only need the number, in nM, no unit after it.

// worked examples, Kd included
H11 Fab (Fab, V domains shown) VH: QVELVESGGGVVQPGRSQRLSCAASGFTFSSYGMHWVRQAPGKGLEWVATIWHDGSSTYYADSVRGRFTISRDNSKNTLYLQMNSLRAEDTAVYFCARELGRRYFDLWGRGTLVSVSS VL: EIVLTQSPATLSLSPGERATLSCRASQSVSSALAWYQQKPGQAPRLLIYDASKRATGIPARFSGSGSGTDFTLTISSLEPEDFAVYYCQQRGKYPPWTFGQGTKVESK ... 0.418
B09 Fab (Fab, V domains shown) VH: QVELVESGGGVVQPGRSQRLSCAASGFTFSSHGMHWVRQAPGKGLEWVAIIAGDASTTYYADSVRGRFTISRDNSKNTLYLQMNSLRAEDTAVYFCARELGRRYFDLWGRGTLVSVSS VL: EIVLTQSPATLSLSPGERATLSCRASQSVSSYLAWYQQKPGQAPRLLIYDASKRATGIPARFSGSGSGTDFTLTISSLEPEDFAVYYCQQRSKYPPWTFGQGTKVESK ... 1.13
B02 Fab (Fab, V domains shown) VH: QVELVESGGGVVQPGRSQRLSCAASGFTFSSTGMHWVRQAPGKGLEWVAYIWFDGSSTYYADSVRGRFTISRDNSKNTLYLQMNSLRAEDTAVYFCARELNRRYFDLWGRGTLVSVSS VL: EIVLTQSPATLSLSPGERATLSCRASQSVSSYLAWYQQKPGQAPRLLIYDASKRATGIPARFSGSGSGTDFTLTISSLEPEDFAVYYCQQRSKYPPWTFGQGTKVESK ... 1.54
A11 Fab (Fab, V domains shown) VH: QVELVESGGGVVQPGRSQRLSCAASGFTFSSYGMHWVRQAPGKGLEWVAYIWFDGSSTYYADSVRGRFTISRDNSKNTLYLQMNSLRAEDTAVYFCARELGRRYFDLWGRGTLVSVSS VL: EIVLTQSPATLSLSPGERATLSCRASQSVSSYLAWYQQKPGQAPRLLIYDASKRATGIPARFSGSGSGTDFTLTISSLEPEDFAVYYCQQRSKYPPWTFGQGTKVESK ... 0.849
C10 Fab (Fab, V domains shown) VH: QVELVESGGGVVQPGRSQRLSCAASGFTFSSAGMHWVRQAPGKGLEWVAIIWADGSSTYYADSVRGRFTISRDNSKNTLYLQMNSLRAEDTAVYFCARELGRRYFDLWGRGTLVSVSS VL: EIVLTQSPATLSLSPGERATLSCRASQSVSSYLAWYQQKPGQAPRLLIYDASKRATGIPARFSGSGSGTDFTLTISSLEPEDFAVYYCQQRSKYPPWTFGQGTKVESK ... 0.447

D03 Fab (Fab, V domains shown, also called clone D03) VH: QVELVESGGGVVQPGRSQRLSCAASGFTFSSHGMHWVRQAPGKGLEWVAYIWFDGSSTYYADSVRGRFTISRDNSKNTLYLQMNSLRAEDTAVYFCARELGRRYFDLWGRGTLVSVSS VL: EIVLTQSPATLSLSPGERATLSCRASQSVSSALAWYQQKPGQAPRLLIYDASKRATGIPARFSGSGSGTDFTLTISSLEPEDFAVYYCQQRSKYPPWTFGQGTKVESK has a reported Kd of 0.407

E01 Fab (Fab, V domains shown) VH: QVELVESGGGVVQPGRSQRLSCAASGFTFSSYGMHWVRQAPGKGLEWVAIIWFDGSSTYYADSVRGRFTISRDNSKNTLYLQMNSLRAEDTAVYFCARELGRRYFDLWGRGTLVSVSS VL: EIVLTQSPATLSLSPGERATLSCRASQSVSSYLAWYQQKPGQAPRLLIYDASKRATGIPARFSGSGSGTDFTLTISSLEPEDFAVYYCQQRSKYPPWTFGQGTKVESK has a reported Kd of 0.179

F02 Fab (Fab, V domains shown) VH: QVELVESGGGVVQPGRSQRLSCAASGFTFSSHGMHWVRQAPGKGLEWVATIWFDGSSTYYADSVRGRFTISRDNSKNTLYLQMNSLRAEDTAVYFCARELGRRYFDLWGRGTLVSVSS VL: EIVLTQSPATLSLSPGERATLSCRASQSVSSTLAWYQQKPGQAPRLLIYDASKRATGIPARFSGSGSGTDFTLTISSLEPEDFAVYYCQQRSKYPPWTFGQGTKVESK has a reported Kd of 1.92

B10 Fab (Fab, V domains shown) VH: QVELVESGGGVVQPGRSQRLSCAASGFTFSSYGMHWVRQAPGKGLEWVATIWFDGSSTYYADSVRGRFTISRDNSKNTLYLQMNSLRAEDTAVYFCARELGRRYFDLWGRGTLVSVSS VL: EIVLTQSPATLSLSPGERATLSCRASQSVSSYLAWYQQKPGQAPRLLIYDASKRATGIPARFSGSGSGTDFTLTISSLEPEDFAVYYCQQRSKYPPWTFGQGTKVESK has a reported Kd of 0.898
